Where these numbers come from: patent US20100279930A1

Quick list: IC50 per entry.
# assaySystem: human Y4 receptor (human, UniProt P50391 1-375)
# Sequence (P50391 whole entry): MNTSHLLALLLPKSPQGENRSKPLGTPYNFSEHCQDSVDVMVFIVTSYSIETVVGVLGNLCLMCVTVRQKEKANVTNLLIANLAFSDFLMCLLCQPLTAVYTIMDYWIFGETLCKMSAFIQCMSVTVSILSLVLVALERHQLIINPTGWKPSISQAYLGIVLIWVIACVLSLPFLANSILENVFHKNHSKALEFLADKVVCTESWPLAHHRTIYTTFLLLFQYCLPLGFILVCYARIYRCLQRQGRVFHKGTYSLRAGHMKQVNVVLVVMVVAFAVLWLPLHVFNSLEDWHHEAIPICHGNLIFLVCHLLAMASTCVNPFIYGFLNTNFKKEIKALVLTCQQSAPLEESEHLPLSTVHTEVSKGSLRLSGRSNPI
# testMethodNotes: 125I-PP displacement
No end group written: not given here.
Give just the numeric value; nM need not be written.

Consider the following illustrative entries.
{"columns": ["binder", "reportedMetric", "unitName", "reading"],
 "data": [
  ["APLEPVYPGDNATPEQMAQYAADLRRYINILTRPRY (ends and bridges not checked) [compound of SEQ ID NO:259 (code 4055713)]", "IC50", "nM", 0.22],
  ["APLEPVYPGDNATPEQMAQYAADLRRYINMLTRPRF (ends and bridges not checked) [compound of SEQ ID NO:255 (code 4055708)]", "IC50", "nM", 0.16],
  ["APLEPVYPGDNATPEQMAQYAADLRRYINVLTRPRY (ends and bridges not checked) [compound of SEQ ID NO:260 (code 4055714)]", "IC50", "nM", 0.09],
  ["APLEPEYPGDNATPEQMAQYAADLRRYINMLTRPRY (ends and bridges not checked) [compound of SEQ ID NO:276 (4055746)]", "IC50", "nM", 0.16]
]}

Item: APLEPVYPGDNATPEQMAQYAADLRRYINKLTRPRY [compound of SEQ ID NO:281 (Lys 30, code 4055855)] | IC50: 0.16
